Property: Ki; scope: individual compounds
Target: Human immunodeficiency virus type 1 reverse transcriptase (Human immunodeficiency virus 1, UniProt Q72547, D67N/L210W/M41L/T215Y)
Assay: Inhibition of HIV1 reverse transcriptase M41L/D67N/L210W/T215Y mutant by steady state nucleotide incorporation assay
Measured endpoint: Ki

compound=C[C@H](Cn1cnc2c(N)ncnc21)OCP(=O)(O)OP(=O)(O)O measured_endpoint=Ki reported_measurement="110 nM"
compound="Cc1cn([C@H]2C[C@H](N=[N+]=[N-])[C@@H](CO[P@](=O)(O)O[P@](=O)(O)OP(=O)(O)O)O2)c(=O)[nH]c1=O [ZIDOVUDINE TRIPHOSPHATE]" measured_endpoint=Ki reported_measurement="47 nM"
compound="Nc1ncnc2c1ncn2[C@H]1CC[C@@H](COP(=O)(O)OP(=O)(O)OP(=O)(O)O)O1 [DDA-TRIPHOSPHATE]" measured_endpoint=Ki reported_measurement="50 nM"
compound=[N-]=[N+]=N[C@H]1C[C@H](n2cnc3c(N)ncnc32)O[C@@H]1COP(=O)(O)OP(=O)(O)OP(=O)(O)OP(=O)(O)O measured_endpoint=Ki reported_measurement="150 nM"

====

Test system: Human immunodeficiency virus type 1 reverse transcriptase (Human immunodeficiency virus 1), Q72547 [M41L,D67N,L210W,T215Y]
Test: Ratio of Ki to Km for HIV1 reverse transcriptase M41L/D67N/L210W/T215Y mutant by steady state nucleotide incorporation assay
Measured endpoint: Ratio

molecule=C[C@H](Cn1cnc2c(N)ncnc21)OCP(=O)(O)OP(=O)(O)O reported_measurement=0.19
molecule=Cc1cn([C@H]2C[C@H](N=[N+]=[N-])[C@@H](COP(=O)(O)OP(=O)(O)OP(=O)(O)O)O2)c(=O)[nH]c1=O reported_measurement=0.09
molecule=[N-]=[N+]=N[C@H]1C[C@H](n2cnc3c(N)ncnc32)O[C@@H]1COP(=O)(O)OP(=O)(O)OP(=O)(O)OP(=O)(O)O reported_measurement=0.26
molecule="Nc1ncnc2c1ncn2[C@H]1CC[C@@H](COP(=O)(O)OP(=O)(O)OP(=O)(O)O)O1 [DDA-TRIPHOSPHATE]" reported_measurement=0.09

====

Test system: Human immunodeficiency virus type 1 reverse transcriptase (Human immunodeficiency virus 1), Q72547 [M41L,D67N,L210W,T215Y]
Test: Inhibition of HIV1 reverse transcriptase M41L/D67N/L210W/T215Y mutant assessed as dCTP level required to form 80% of binary enzyme complex formation with drug-terminated primer in posttranslocation state by site-specific foot printing assay
Property: Activity; scope: individual molecules
Measured endpoint: Activity (µM)

molecule="C[C@H](Cn1cnc2c(N)ncnc21)OCP(=O)(O)O [TENOFOVIR ANHYDROUS]" measured_endpoint=Activity result_comparator== reported_measurement=2
molecule=Nc1ncnc2c1ncn2[C@H]1CC[C@@H](COP(=O)(O)O)O1 measured_endpoint=Activity result_comparator== reported_measurement=0.3
molecule=[N-]=[N+]=N[C@H]1C[C@H](n2cnc3c(N)ncnc32)O[C@@H]1COP(=O)(O)O measured_endpoint=Activity result_comparator=> reported_measurement=100
molecule="Cc1cn([C@H]2C[C@H](N=[N+]=[N-])[C@@H](COP(=O)(O)O)O2)c(=O)[nH]c1=O [AZIDOTHYMIDINE MONOPHOSPHATE]" measured_endpoint=Activity result_comparator== reported_measurement=50
